System: SK-MEL-5 melanoma
METHOD: NCI-60 one-dose screen, 48 h
TEST_CONTEXT: 10 µM unless noted
The panel holds about 83,000 compounds, 20% with a hit somewhere; the sample as a whole holds those more often. Calls of active or inactive are those of the source. The calls were made as follows: active = growth percent below 10; inactive = the rest.
Use one of these outcomes when replying: yes (1) for active, no (0) for inactive

Task: Which outcome was assigned to CC(C)NS(=O)(=O)/N=C1\NC(=O)NC1=C(Cl)Cl in this test?
Output: no (0)

Task: What do we get for Cc1cccc(NC(=O)N/C(N)=N/c2nc3ccccc3s2)c1 ?
Output: no (0)

Task: Record: COc1nc(/C=C\Nc2ccc3c(c2)OCCOCCOCCOCCO3)nc(OC)n1
Output: no (0)

Task: Then what about the compound O=C(C1=Cc2cc3ccccc3n2Cc2cnnn21)c1ccc(F)cc1 ?
Output: no (0)

Task: And COc1ccc(/C=C(/C(=O)N2CCNCC2)c2cc(OC)c(OC)c(OC)c2)cc1O ?
Output: no (0)

Task: Entry CC/C(=C(/c1ccc(O)cc1)c1ccc(OCCN2CCCCC2)cc1)c1ccc(OC)cc1 please
Output: no (0)

Task: How about CCOC(=O)c1c(C)nc2ccccc2c1/C=C/c1ccc(F)cc1 ?
Output: no (0)

Task: // next record CCCCCCCCn1ccc2cc(NC(=O)CN3CCN(c4cc(C)nc(Cl)n4)CC3)ccc21
Output: no (0)

Task: What do you have for Nc1cc(-c2ccc(Cl)cc2)nn1-c1nnc(/C=C/c2ccco2)c(=O)[nH]1 ?
Output: no (0)

Task: Subsequent entry: COc1cc(Cc2cc(OC)c(O)c(OC)c2)cc(OC)c1O
Output: no (0)

Task: NS(=O)(=O)c1ccc(C(=O)NN2C(=O)c3ccccc3C2=O)cc1 ?
Output: no (0)

Task: Then CNCCCNc1nc2ccccc2c2c(=O)c3cc(Cl)ccc3sc12 ?
Output: no (0)

Task: Field entry: Clc1ccc(-c2cc(-c3ccccc3)nc(N3CCN(CCCNc4ccnc5cc(Cl)ccc45)CC3)n2)cc1
Output: no (0)

Task: Please answer likewise for Nc1ccc(Br)cc1C(F)(F)F
Output: no (0)

Task: Another compound to look at: COC(=O)c1nc(-c2ccccc2)oc1S(=O)(=O)N1CCCC(C)C1 (stereo not given)
Output: no (0)

Task: Query O=C1C=CC2(O)OC/C(=C\c3ccccc3)C(O)=C2C1=O (stereo not given) next
Output: no (0)

Task: Can you check CCOC(=O)c1ccc[nH]1 next?
Output: no (0)

Task: And what about the compound CC[C@@H](C(=O)[C@@H](C)[C@@H](O)[C@H](C)[C@@H]1O[C@@H]([C@@H](CC)C(=O)ONC(=O)c2ccccc2O)CC[C@@H]1C)C1O[C@]2(C=CC(=O)[C@]3(CC[C@@](C)([C@H]4CC[C@](O)(CC)[C@H](C)O4)O3)O2)[C@H](C)C[C@@H]1C (stereo not given in full) ?
Output: no (0)

Task: Please give the result for COCCn1cc(-c2csc(-c3c[nH]c4ccccc34)n2)c2cccnc21 too.
Output: yes (1)

Task: Same for O=C(NCCN1CCOCC1)OCc1ccc2c(Cl)cc(Cl)c(O)c2n1
Output: no (0)

====

Tested on: OVCAR-8 ovarian
METHOD: NCI-60 one-dose screen, 48 h (100 = growth as untreated, 0 = no growth, -100 = all killed)
TEST_CONTEXT: 10 µM unless noted
The panel holds about 83,000 compounds, 20% with a hit somewhere; the sample as a whole holds those more often.
With a cut-off of 20%, any growth strictly below it is called fulfilled; any growth meeting it or above is called not fulfilled.

Task: For this molecule, is growth lower than 20%? CNC(=O)c1cc(Oc2ccc3c(c2)sc2nc(-c4ccc(Cl)c(C(F)(F)F)c4)cn23)ccn1
Output: not fulfilled

Task: Query O=C1/C(=C/c2c[nH]c(=O)[nH]c2=O)SC(=S)N1Cc1ccccc1 next
Output: not fulfilled

Task: And then Cc1cc(C(=O)CCCC(=O)c2cc(C)c(O)c(C)c2)cc(C)c1O , what is it?
Output: not fulfilled

Task: Same for Cc1ccc2c(c1)nc(C)n2-c1ncnc2c1CC(C)c1cc(O)ccc1N2C (centres undefined)
Output: not fulfilled

Task: // same read-out, input: O=S(=O)(NCCNc1nccc(-c2c(-c3ccc(F)c(O)c3)nc3sccn23)n1)c1ccc(Cl)cc1
Output: not fulfilled

Task: And the next one, CS(=O)(=O)Nc1cc(-c2ccc3ncnc(Nc4ccc(OCc5ccccn5)c(Cl)c4)c3c2)cnc1Cl ?
Output: fulfilled

Task: Moving on to Cc1ccc(S(=O)(=O)OC[C@]23CCC(C)(C)C[C@H]2C2=CC[C@@H]4[C@@]5(C)CCCNC(C)(C)[C@@H]5CC[C@@]4(C)[C@]2(C)CC3)cc1
Output: fulfilled

Task: How about this molecule: Nc1cc(-c2ccc(Cl)cc2)nn1-c1nnc(/C=C/c2ccco2)c(=O)[nH]1
Output: not fulfilled

Task: Another molecule to look at: CN(C)c1ccc(CNCCO)cc1
Output: not fulfilled

====

System: HOP-92 NSCLC
METHOD: NCI-60 one-dose screen, 48 h (100 = growth as untreated, 0 = no growth, -100 = all killed)
TEST_CONTEXT: 10 µM unless noted
About 83,000 compounds went through this panel and 20% of them were active in at least one assay; those are over-represented in the sample as a whole. Active and inactive are the calls of the source. How the source made its calls: active means growth percent below 10; inactive means the rest.
Record form. Attribute: growth. Fill in for each entry.

Task: Tell me the measured growth of COCCn1cc(-c2nc(-c3c[nH]c4ncccc34)cs2)c2ccccc21 , please.
Output: 2.56% (active)

Task: Request: COc1cc([C@@H](CCO)C[C@H](C)c2ccc3ccccc3c2)cc(OC)c1OC
Output: 30.8% (inactive)

Task: Also, O=c1oc2c(cc1-c1ccccc1)c(=O)[nH]c1ccccc12 please.
Output: 103% (inactive)

Task: And what about the compound COC(=O)c1c(C)nc(C)c2c1C(=O)C=C(NCc1ccccc1)C2=O ?
Output: 117% (inactive)

Task: Can you check CN(C)CCCNC(=O)c1cncnc1Nc1ccc2c(ccn2Cc2cccc(F)c2)c1 next?
Output: 78.3% (inactive)

Task: Quick one: CCCCC#Cc1c(I)n(C2OC(CO[Si](C)(C)C(C)(C)C)C3OC(C)(C)OC32)c(=O)n(C(=O)c2ccccc2)c1=O (stereo unspecified)
Output: -37.6% (active)

Task: Another compound: CC(=O)c1c(Nc2cccc(F)c2)[nH]c2c(Cl)cc(Cl)c(Cl)c2c1=O
Output: -14.2% (active)

Task: Also, Oc1nc(NCc2ccccc2)sc1/C=C1\C=Nc2ncccc21 please.
Output: 28.8% (inactive)

Task: What about CN(C)CCC(CCN(C)C)(C(=O)O)c1ccccc1 ?
Output: 84.9% (inactive)

Task: Let us now turn to CC(C)NS(=O)(=O)/N=C1\NC(=O)NC1=C(Cl)Cl
Output: 122% (inactive)

Task: C#Cc1cccc(NC(=O)C2CCCCN2C(=O)CCl)c1 (stereo unspecified) ?
Output: -54.2% [8.25 µM] (active)

====

Test system: NCI/ADR-RES ovarian
METHOD: NCI-60 one-dose screen, 48 h (100 = growth as untreated, 0 = no growth, -100 = all killed)
TEST_CONTEXT: 10 µM unless noted
Compounds without any hit were thinned out: in the full panel of roughly 83,000, 20% have a hit.
OBSERVATION_TYPE: growth (%)
Give the value in % but do not write % after it.

Task: Find the measured growth: item Cc1cc2oc(/C=C/c3ccccc3)cc(=O)c2c(C)c1Cl , target or system NCI/ADR-RES ovarian.
Output: 97.8

Task: // next record COC(=O)[C@@]1(C)CC[C@]2(C)CC[C@]3(C)C4=CC=C5C(=CC(=O)C(O)=C5C)[C@]4(C)[C@@H](O)C[C@@]3(C)[C@@H]2C1
Output: 49

Task: Again, but for CCN(CC)C(=O)CC1=C(C)/C(=C/c2[nH]c(-c3ccc[nH]3)cc2OC)N=C1C
Output: 18.3

Task: One more compound: CNC(=O)Nc1ccc(-c2ccc3ncnc(Nc4cccc(Cl)c4)c3c2)cc1
Output: 57.6

Task: Please do the same for COCCn1cc(-c2csc(-c3c[nH]c4ccccc34)n2)c2cccnc21 as well.
Output: 12.7

Task: Try this compound too: COc1ccc(OC)c(Nc2nnc(-c3cc(OC)c(OC)c(OC)c3)o2)c1
Output: 94.4

Task: Same question for Cc1c(O)cc(-c2cnc(N/N=C/c3ccccc3)s2)c(O)c1C please.
Output: 93.6

Task: Now the same for COc1cc2c(cc1-c1c(C)noc1C)ncc1nc(CN3CCOCC3)n([C@H](C)COC(F)F)c12
Output: 40.8

Task: Lookup Cc1ccc(C2CC(c3cccc(Nc4ccncc4)c3)=Nc3c(N)nc(N)nc3N2)cc1 (stereo not drawn)
Output: 101

Task: Same question, Cn1cc(-c2csc(-c3cn(C)c4ccccc34)n2)c2cnccc21 this time
Output: 41.8

Task: Field entry: O=C(/C=C/c1ccccc1)N(C1CCCCC1)C1CCCCC1
Output: 74.5

Task: Please answer likewise for CSc1ccc(N2C(=N)C(=S)N(c3ccc(C)cc3)C2=O)cc1
Output: 106

Task: Same again, this time with O=c1cc(CP(=O)(O)O)c2cc(O)c(-c3ccccc3)cc2o1
Output: 102

Task: Try this compound next: O=[N+]([O-])c1ccccc1Sc1ccccc1[N+](=O)[O-]
Output: 96.2

Task: Can you handle CN1C(=O)/C(=C/c2ccc(C(=O)Nc3ncc(Cc4cc(Cl)ccc4Cl)s3)cc2)SC1=S next?
Output: 70.2

Task: One more compound: CCCCCc1ccc(S(=O)(=O)Nc2ccc3nc(N)oc3c2)cc1
Output: 53

Task: Next compound up: Cc1cccc(N2C(=O)/C(=C/C(Cl)=C/c3ccc([N+](=O)[O-])cc3)SC2=S)c1C
Output: 7.84

Task: Field entry: O=CCCCOCc1ccccc1
Output: 97.4

Task: Then CN(C)Cc1cc(C(C)(C)C)cc(Br)c1O ?
Output: 106

Task: CCn1cc(Cc2cc(C(=O)Nc3cc4cc(OC)c(OC)cc4c(C)n3)ccc2Cl)cn1 , same question.
Output: 22.5

Task: Another compound to look at: COc1cc2c3c(c4c5ccccc5[nH]c4c2c(OC)c1OC)C(=O)N(CCN1CCCCC1)C3=O
Output: 24.6

Task: And the next one, CCOC(=O)C/C(=N\Nc1cc(=O)[nH]c2ccc(C)cc12)C(=O)OCC ?
Output: 105

Task: How about this compound: O=C(NNc1nc2cc(F)ccc2n2c(CN3CCOCC3)ccc12)c1ccccc1
Output: 5.25

Task: Entry to check: Cc1nc2sc(C(=O)Nc3cccc(Cl)c3C)c(N)c2cc1C(=O)/C=C/c1ccccc1
Output: -4.7

Task: Now this one: COc1ccc2c(c1)CC[C@@H]1[C@@H]2CC[C@]2(C)c3c(cc(C#N)c4c3sc3ccccc34)C[C@@H]12
Output: 101

Task: Again, but for COC12C=C/C(=C(/C(=O)OCCSc3ccnn3C)C(=O)CCCCCCCCC3(OC)C=C/C(=C(/C(=O)OCCSc4ccnn4C)C(=O)CCCCCCCC1)O3)O2
Output: 25.2

Task: Would you mind doing COc1ccc(/C=N/Nc2c3ccccc3nc3ccccc23)cc1 as well?
Output: 102

Task: Next compound up: O=[N+]([O-])c1ccccc1Nc1ccc2ccccc2c1
Output: 105

Task: Also Nc1cc(-c2ccc(Cl)cc2)nn1-c1nnc(/C=C/c2ccco2)c(=O)[nH]1 ?
Output: 5.73

Task: For CC(C)=CC(=O)N[C@H]1CC[C@]2(C)C3CC[C@]4(C)C(C(C)N(C)C)=CCC4C3CCC2[C@H]1O (stereo partly drawn) then?
Output: 71.6

Task: What about this compound? CC(C)(C)c1ccc(S(=O)(=O)Oc2ccc(-c3sc4cc(OS(=O)(=O)c5ccc(C(C)(C)C)cc5)ccc4c3C(=O)c3ccc(OCCN4CCCCC4)cc3)cc2)cc1
Output: 97.9

Task: Okay, and CCOC(=O)c1cnn(CC(C)O)c1NC(=O)NCc1ccccc1C(F)(F)F (stereo not drawn) ?
Output: 100

Task: Let us now turn to O=C1O[C@@H](c2ccccc2Cl)[C@@H]2c3cc4c(cc3CCN12)OCO4
Output: 104

Task: # repeat for O=C(Nc1cc(Cl)cc(Cl)c1)Oc1c(Cl)c(Cl)c(Cl)c(Cl)c1Cl
Output: 77.5

Task: What about this compound? Nc1ncnc2c1N=C(c1ccc(F)cc1)CC(c1cccc(Nc3ccnc4cc(Cl)ccc34)c1)N2 (stereo not drawn)
Output: 78.2

Task: Then COC(=O)/C=C1/SC(=Nc2ccc(F)cc2)N(CCc2c[nH]c3ccc(O)cc23)C1=O ?
Output: 32.7

Task: # iterate: O=c1cc(CNc2cc(F)cc(F)c2)c2ccc(I)cc2[nH]1
Output: 26.3

Task: Can you check C=C1C(=O)O[C@H]2[C@H]1CC/C(COC(=O)/C=C\C(=O)NCc1ccc(Cn3c(=O)sn(CCCCl)c3=O)cc1)=C\CC[C@@]1(C)O[C@@H]21 next?
Output: 93.7
